System: Mus musculus
Assay: Toxicity in BDF1 mouse allografted with mouse L1210 cells assessed as reduction in average life span at 500 mg/kg, ip administered 24 hrs post-implantation measured up to 30 days relative to control
Type: organism-based
Parameters: dose 500 mg/kg, route intraperitoneal; scale not given: the % may be the effect or the level left
Conditions: in vivo
Each entry below carries its recorded Activity.

| smiles_input | measure_unit | Activity |
| --- | --- | --- |
| CCCCCC(=O)OC[C@H]1O[C@@H]2[C@@H](Oc3nc(=N)ccn32)[C@@H]1OC(=O)CCCCC.Cl | % | 86 |
| CCCCCCCCCCCC(=O)OC[C@H]1O[C@@H]2[C@@H](Oc3nc(=N)ccn32)[C@@H]1OC(=O)CCCCCCCCCCC.Cl | % | 23 |
| CCCCCCCC/C=C\CCCCCCCC(=O)OC[C@H]1O[C@@H]2[C@@H](Oc3nc(=N)ccn32)[C@@H]1OC(=O)CCCCCCC/C=C\CCCCCCCC.Cl | % | 23 |
| CCCCCCCCCCCCCC(=O)OC[C@H]1O[C@@H]2[C@@H](Oc3nc(=N)ccn32)[C@@H]1OC(=O)CCCCCCCCCCCCC.Cl | % | 20 |

---

Test system: L1210
Assay: Antitumor activity against mouse L1210 cells allografted in BDF1 mouse assessed as increase in life span at 500 mg/kg, ip administered 24 hrs post-implantation measured up to 30 days relative to control
Format: functional
Conditions: route intraperitoneal
// reported ILS at 500 mg/kg for each item listed
measured_endpoint: ILS at 500 mg/kg

| smiles_input | recorded_result |
| --- | --- |
| CCCCCCCCCCC(=O)OC[C@H]1O[C@@H]2[C@@H](Oc3nc(=N)ccn32)[C@@H]1OC(=O)CCCCCCCCCC.Cl | > 20% |
| CCCCCCCC/C=C/CCCCCCCC(=O)OC[C@H]1O[C@@H]2[C@@H](Oc3nc(=N)ccn32)[C@@H]1OC(=O)CCCCCCC/C=C/CCCCCCCC.Cl | > 257% |
| CCCCCCCC/C=C\CCCCCCCCCCCC(=O)OC[C@H]1O[C@@H]2[C@@H](Oc3nc(=N)ccn32)[C@@H]1OC(=O)CCCCCCCCCCC/C=C\CCCCCCCC.Cl | > 257% |

Reference source for all entries: ChEMBL document CHEMBL3272098
